Assay Details: inhibition of RSV-induced cytopathic effect – HEp-2 cells, primary 10 µM value included (AID 2391)
Assay Context: at 10 µM, stronger effect = higher value
Screen size: about 310,000 compounds; about 410 (0.13%) were called active. Roughly 2% stayed inconclusive and do not appear here. Only a sample is shown. Potency and affinity values are given separately.
Measured CPE inhibition values are reported for all entries that follow.
Respond numerically; units are % and should not be typed.

Known results for compounds:
>>> result_number("Cc1cc(/C=C2/NC(=O)NC2=O)c(C)n1-c1ccncc1")
19.7
>>> result_number("Cc1ccc(C)c2c1cc(C)c1nnc(SCC(=O)NCc3ccc4c(c3)OCO4)n12")
2.14
>>> result_number("CNC(=O)N1c2ccccc2C=Cc2ccccc21")
0.96
>>> result_number("COCCN1C(=O)C(CC(=O)Nc2ccc(C(=O)O)cc2)SC1=Nc1ccccc1 (centres undefined)")
1.29
>>> result_number("Cc1cc(/C=C2/NC(=O)NC2=O)c(C)n1C")
3.8

Q. Write down CPE inhibition measured for item CCOC(=O)c1sc(=NC(=O)c2ccc(OC(C)C)cc2)n(C)c1C
A. -0.02

Q. Read the entry Cc1cc(/C=C2/C(=O)NN(c3ccccc3)C2=O)c(C)n1-c1cccc(O)c1 and write its reported CPE inhibition.
A. 1.07

Q. Return CPE inhibition for the following compound: Nc1nnc(COc2cccc(C(F)(F)F)c2)s1
A. 1.04

Q. Name the recorded CPE inhibition of the item CC(=O)Nc1ccc(NC(=O)CCn2nnc3ccccc32)cc1 in your answer.
A. -1.57

Q. Find the measured CPE inhibition of O=C1CN2C(=Nc3ccc(Br)cc3C2c2ccccc2)CCN1 (centres undefined) and report it.
A. -0.32

Q. Quote CPE inhibition reported for O=C(O)c1cc(-c2ccc(/C=C3\NC(=O)N(c4ccccc4)C3=O)o2)ccc1Cl please.
A. 4.99

Q. Identify measured CPE inhibition associated with Cc1cc(C)c(NC(=O)CSc2nnc(CNC(=O)c3ccco3)o2)c(C)c1
A. -0.65

---

Assay Details: inhibition of RSV-induced cytopathic effect – HEp-2 cells, primary 10 µM value included (AID 2391)
Assay Context: at 10 µM, stronger effect = higher value
Hit rate of the full screen: of about 310,000 compounds, about 410 (0.13%) were called active. Another 2% or so got no clear call; they are omitted. Only a sample is shown. Potency and affinity values are given separately.
// reported CPE inhibition for each item listed
Provide only the numeric value, understood in %.

The following molecules have reported results that may help.
>>> result_number("COc1ccccc1C1CCCN1Cc1nc(-c2cc3c(cc2Cl)OCO3)oc1C (configuration not stated)")
1.45
>>> result_number("COc1cc2c(cc1OC)C(C)N(C(=O)c1ccc(Br)o1)CC2 (configuration not stated)")
4.76
>>> result_number("CCOc1cc(/C=C2\\SC(=NC)N(C)C2=O)c(Br)cc1OC(C)=O")
1.71

Q. Identify the reported CPE inhibition for the following entry. CC(=O)C1[C@H](N(C)C)CC2C3CC=C4CC(O)CC[C@]4(C)C3CC[C@@]21C (some centres not stated)
A. 0.54

Q. Recall and state the measured CPE inhibition for CC(=O)NCCNC(=O)c1ccc(Cn2c(=O)[nH]c3ccsc3c2=O)cc1 .
A. 0.58

Q. In one line, give reported CPE inhibition of the entry O=C(Nc1ccccc1N1CCN(C(=O)c2ccc(Cl)cc2)CC1)c1ccc(Br)cc1 .
A. 10.3
